test system: fuLAP2; format: biochemical, Aspergillus fumigatus; conditions: cation salt 0.5 mM; Leu-MCA substrate
Classify: t when fuLAP2 hydrolytic activity, percentage of control without any cation is strictly less than 80%; f when fuLAP2 hydrolytic activity, percentage of control without any cation is not.

Ask | A record lists [Ca+2].[Cl-].[Cl-] . Is its fuLAP2 hydrolytic activity, percentage of control without any cation below 80%?
Reply | f

Ask | Try this compound too: [Cl][Cu][Cl]
Reply | t

Ask | Another compound to check: [Cl-].[Cl-].[Mg+2]
Reply | f

Ask | Also [Cl][Mn][Cl] , if possible.
Reply | f

Ask | Input [Cl][Ni][Cl]
Reply | f

Ask | What about this compound? [Cl-].[Cl-].[Co+2]
Reply | f

Ask | Subsequent entry: [Cl-].[Cl-].[Zn+2]
Reply | t
